Numbers sourced from PubChem BioAssay AID179.

tested on: CEM cells HIV-1 protection, formazan growth assay; experiment: NCI AIDS Antiviral Assay;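 active = compounds giving half or more protection of infected cells from virus-caused growth loss, again on retest; inactive = the rest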
Outcome codes: active, inactive

1) COc1cc(Nc2nc3ccc(C(F)(F)F)cc3nc2C(=O)O)cc(OC)c1OC | inactive
2) Clc1ccc(Nc2ncco2)cc1Cl | inactive
3) O=C(Nc1ccc(S(=O)(=O)c2ccc(NC(=O)c3ccc(N=Nc4cc(S(=O)(=O)O)c5cccnc5c4O)cc3S(=O)(=O)O)cc2)cc1)c1ccc(N=Nc2cc(S(=O)(=O)O)c3cccnc3c2O)cc1S(=O)(=O)O | active
4) CC[N+](C)(CC)CCC(O)(c1ccccc1)c1ccccc1 | inactive
5) C/C(C=C(C#N)C#N)=C\c1ccccc1 | inactive
6) CN(C)P1(=S)NCC(C(C)(C)C)CO1 (stereo not drawn) | inactive
7) Cc1c(C)c2c(c3c1OC(C)(C)CC3)CCC(C)(C)O2 | inactive
8) C=CC[C@@H](N)C(=O)N(C)[C@@H](C)[C@@H](O)c1ccccc1 | inactive
9) CC1C2(C)OC(=N)C(C#N)(C(c3ccccc3)O2)C1(C#N)C#N (stereo not drawn) | inactive
10) O=C(CC(O)(C(F)(F)F)C(F)(F)F)c1ccc(-c2ccccc2)cc1 | inactive
11) C#CCOC(=O)[C@@H](C)c1ccc2cc(OC)ccc2c1 | inactive
12) Nn1c(Cc2ccccc2)nnc1Cc1ccccc1 | inactive
13) Oc1ccc2ccccc2c1OCc1nnc(CCCCCCCCc2nnc(COc3c(O)ccc4ccccc34)o2)o1 | inactive
14) NC(=Nc1ccccc1)C(F)(F)F | inactive
15) CSc1nncc2[nH]cnc12 | inactive
16) C=C(C)CN1C(=O)C(C)S/C1=N/N=C1/SCC(=O)N1C (stereo not drawn) | inactive
17) CC(C)=CCN1CC(C)Cn2c(=S)[nH]c3cccc1c32 (stereo not drawn) | active
18) CN(C)CCn1c(=O)c2ccc(NCCNCCO)c3c(=O)c4ccccc4n(c1=O)c23 | inactive
19) N#C/C(C(=O)Nc1ccccc1)=C(/N)N1CCCCC1 | inactive
20) Cn1c(=O)c2c(ncn2CC(=O)N/N=C2\SCC(=O)N2Cc2ccccc2)n(C)c1=O | inactive
21) O=C(O)CCCc1ccc2c(c1)CC1(C2)Cc2ccc(CCCC(=O)O)cc2C1 | inactive
22) O=c1oc2ccccc2c(O)c1Cc1c(O)c2ccccc2oc1=O | inactive
23) Cc1ccc(S(=O)(=O)Nn2c(-c3ccccc3)c(C#N)c(-c3ccc(Cl)cc3)c(C#N)c2=O)cc1 | inactive
24) CCN(CCCl)c1cc(CN(C)C)cc(NC(=O)c2ccc(C(=O)Nc3cc(CN(C)C)cc(N(CC)CCCl)c3)cc2)c1 | inactive
25) O=C1NC(=S)S/C1=C/c1ccco1 | inactive
26) CC(C)OP(=O)(OC(C)C)C(=Nc1ccncc1)NNc1ccc([N+](=O)[O-])cc1 | inactive
27) Nc1ccc2c(c1)C(=O)N1CCC[C@H]1C(=O)N2 | inactive
28) CN(C)CC1(C)Cc2sccc2C1=O (stereo not drawn) | inactive
29) CCCCCCCCCCCC(=O)OCC1OC(n2cc(F)c(=O)[nH]c2=O)C(N)C(O)C1O (stereo not drawn) | inactive
30) CC(C)(C)OC(=O)[C@H]1CCC(=S)N1Cc1ccccc1 | inactive
31) S=c1[nH][nH]c(=S)c2[nH]cnc12 | inactive
32) C1COCCSC2=C(SCCO1)SC(=C1SC3=C(SCCOCCOCCS3)S1)S2 | inactive
33) O=C(Nc1ccccc1)N(CCN(Cc1ccccc1)C(=O)Nc1ccccc1)CCN(Nc1ccccc1)C(=O)Nc1ccccc1 | inactive
34) CCn1c(=O)c(N=O)c(N)n(C2CC2)c1=O | inactive
35) NC(=O)N=C(N(Cc1ccccc1)Cc1ccccc1)N(Cc1ccccc1)Cc1ccccc1 | inactive
36) CCOCC(CN(CC)CC)N(CC)CC(=O)Nc1c(C)cccc1C (stereo not drawn) | inactive
37) COC(=O)C(Cc1ccccc1)NC(=O)C(CCC(=O)OCc1ccccc1)NC(=O)OC(C)(C)C (stereo not drawn) | inactive
38) c1cc2cc3c(cc2o1)OC[C@H]1c2cc4c(cc2O[C@@H]31)OCO4 | inactive
39) Cn1c2ccccc2c(=O)c2c(O)cc3c(c21)C=CC1(CCCC1)O3 | active
40) Cc1cc(N(CCC#N)S(=O)(=O)c2ccccc2)ccc1C=Nc1cccc(C(=O)O)c1 | inactive
41) CC1CCCC2=C1C(=O)N(CSCN1C(=O)C3=C(C1=O)C(C)CCC3)C2=O (stereo not drawn) | inactive
42) Clc1cc2ncn(C3CCCCO3)c2cc1Cl (stereo not drawn) | inactive
43) Nc1nc(Cl)c(N=Nc2ccc(Cl)cc2)c(NCC2(CO)CCC2)n1 | inactive
